- studySystem: Luciferin 4-monooxygenase (Photinus pyralis)
- assayText: qHTS profiling assay for firefly luciferase inhibitor/activator using purifed enzyme and Km concentrations of substrates (counterscreen for miR-21 project); also: nearly all actives have a fitted effect of over 55% in size
- statedConditions: purified FLuc, luminescence inhibition; series mostly up to 57.5 µM
The campaign covered roughly 360,000 compounds. About 25,000 (6.9%) were called active. About 9% were inconclusive and are not listed. Calls follow the shape of the dose curve; as a rule, active = well fitted inhibition curve with a large enough effect; inconclusive = small, poorly fitted or top-dose-only effect; inactive = flat fitted curve, though single readings scatter. What follows is part of a selection rich in actives, with near analogues and random picks from the rest.
Select the correct class. Options are True = active, False = inactive and nothing else.

CCN(C(=O)COC(=O)CCOc1cccc(C)c1)c1c(N)n(Cc2ccccc2)c(=O)[nH]c1=O	False
Cc1cc(N(C)C)cc(C)[n+]1[O-]	False
O=C(Nc1ccc(OC(F)(F)F)cc1)C1CCCN(S(=O)(=O)c2ccc(Br)s2)C1 (configuration not stated)	False
Cc1ccc(NC(=O)Nc2cccnc2)cc1	True
O=S(=O)(Nc1ccccc1N1CCOCC1)c1ccc(Cl)s1	False
Cc1ccc(-c2onc(C)c2C)cc1S(=O)(=O)Nc1ccccn1	False
Cc1ccc(NC(=O)NCC(c2cccnc2)N2CCOCC2)cc1 (configuration not stated)	False
O=S(=O)(Nc1ccc(-c2ccc(N3CCOCC3)nn2)cc1)c1cc(Cl)ccc1Cl	True
CC(=O)Nc1ccc(S(=O)(=O)Nc2ccc(N3CCOCC3)c(F)c2)cc1	False
CC1CCCC(NC(=O)c2cc(-c3ccncc3)nc3ccccc23)C1C (configuration not stated)	False

Asked: I would be grateful if you could indicate the recorded call for "CCOC(=O)c1cnc(SCc2nc(N)nc(Nc3ccc(OC)cc3)n2)nc1N" .
Given back: True

Asked: Note, next up: "CSc1ccc(Cl)c(C(=O)OCC(=O)N2CCNC2=O)c1"
Given back: False

Asked: Continue with "Cc1cccc(NS(=O)(=O)c2cc(Cl)ccc2Cl)n1"
Given back: False

Asked: Now consider "COc1cc(OC)cc(C(=O)NCCSCc2ccc(Cl)cc2)c1" .
Given back: False

Asked: // query: "CC(=O)c1cccc(NC(=S)N2CCCC2)c1"
Given back: False

Asked: Do the same for CCOC(=O)c1c(NC(=O)CNC2CCCc3ccccc32)sc(C(N)=O)c1C (configuration not stated) please
Given back: False

Asked: Lookup "C=C(C)C(=O)Nc1cccc(C(C)=O)c1"
Given back: False

Asked: Can you handle "O=S(=O)(Nc1cccc(-c2ccc(N3CCOCC3)nn2)c1)c1ccc(Cl)c(Cl)c1" next?
Given back: True

These data points were gathered from PubChem BioAssay AID588342.
